- Study Target: PCBP-2 (poly(C)-binding protein 2) (UniProt Q15366 1-365)
- Sequence (Q15366 whole entry): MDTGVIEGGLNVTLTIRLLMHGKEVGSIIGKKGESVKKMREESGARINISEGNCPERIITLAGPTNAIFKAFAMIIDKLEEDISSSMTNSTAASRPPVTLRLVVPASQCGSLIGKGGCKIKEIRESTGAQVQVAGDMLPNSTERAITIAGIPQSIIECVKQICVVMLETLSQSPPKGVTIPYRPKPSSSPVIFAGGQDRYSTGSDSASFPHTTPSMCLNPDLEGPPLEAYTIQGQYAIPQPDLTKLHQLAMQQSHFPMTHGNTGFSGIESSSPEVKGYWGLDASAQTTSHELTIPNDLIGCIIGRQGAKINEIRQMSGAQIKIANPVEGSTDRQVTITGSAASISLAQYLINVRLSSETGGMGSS
- Experimental Details: ELONA-RTqPCR; Kd in range 24.1-276.5 nM, value in figure; ELONA: 100 mM HEPES pH 7.4, 100 mM NaCl, 6 mM MgCl2, 37 °C, 60 min, PCBP-2 (10 pmol) immobilized on Cu2+ plates; EMSA: 40 mM Tris-HCl pH 7.5, 250 mM NaCl, 0.1%
- Condition Set: protein: recombinant; tags: N-terminal 6xHis
Measured Parameter: binding result

>>> experimental_value("05RS10-19 (ssRNA) RNA: GGGGCGGAUCCAGACUGGUGUAAUCGAUCUUGCAUGCUAUUCGUCAAUCAACUCUUGCCGGCCCUAAAGACAAGCUUC")
"binds"
>>> experimental_value("05RS10-18 (ssRNA) RNA: GGGGCGGAUCCAGACUGGUGUUUAAUUAUGUAAGUAAAUUGUUUUUUGACUCUCGCAUUGGGCCCUAAAGACAAGCUUC")
"binds"
>>> experimental_value("05RS10-11 (ssRNA) RNA: GGGGCGGAUCCAGACUGGUGUGAUCAUAUUAAUAAGACGCUUCCAGGUACGUCGCUGUUGGGCCCUAAAGACAAGCUUC")
"binds"
>>> experimental_value("05RS10-30 (ssRNA) RNA: GGGGCGGAUCCAGACUGGUGUUUCCGCAAAGAGUGGUCUUUGUUAAUGUCAGGUUUCUUCGGCCCUAAAGACAAGCUUC")
"binds"
>>> experimental_value("05RS10-04 (ssRNA) RNA: GGGGCGGAUCCAGACUGGUGUCAUUUAGCAAAAACACUUGUAUAAUUCAAGUCGAUGUUGGGCCCUAAAGACAAGCUUC")
"binds"

// next entry
The recorded binding result for 05RS10-34 (ssRNA) RNA: GGGGCGGAUCCAGACUGGUGUGAACACAGACGAGAACGUUGCAUAAAACCGCUUUUUUGGGCCCUAAAGACAAGCUUC is binds
